These entries and their values trace back to patent US20110118447A1.

Target: binding partner of C5A (XPA23)
Experiment: Biacore K-off
Value kind: fold difference in affinity vs original (fold)
Numeric answer only, unit fold assumed.

Study these solved cases before continuing.
C5A (XPA23) VL S53Q (antibody, V domains shown) VH: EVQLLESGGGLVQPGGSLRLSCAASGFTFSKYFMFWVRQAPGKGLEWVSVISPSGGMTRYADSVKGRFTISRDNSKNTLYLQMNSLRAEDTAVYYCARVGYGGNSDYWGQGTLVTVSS VL: DIQMTQSPSSVSASVGDRLTIICRASQDINRWLAWYQQTPGNAPKLLIHSATQLQSGVPSRFSGSGSGTDFTLTINSLQPEDFATYYCQQADSFPLTFGGGTKVEIK
1.09
C5A (XPA23) VL D28R (antibody, V domains shown) VH: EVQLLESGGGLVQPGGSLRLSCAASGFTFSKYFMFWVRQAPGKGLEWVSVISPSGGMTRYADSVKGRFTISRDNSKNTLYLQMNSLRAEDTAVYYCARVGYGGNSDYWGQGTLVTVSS VL: DIQMTQSPSSVSASVGDRLTIICRASQRINRWLAWYQQTPGNAPKLLIHSATSLQSGVPSRFSGSGSGTDFTLTINSLQPEDFATYYCQQADSFPLTFGGGTKVEIK
0.94
C5A (XPA23) VL D28G (antibody, V domains shown) VH: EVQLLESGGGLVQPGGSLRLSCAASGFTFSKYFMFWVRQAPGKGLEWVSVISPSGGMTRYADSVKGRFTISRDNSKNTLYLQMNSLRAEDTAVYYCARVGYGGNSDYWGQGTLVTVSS VL: DIQMTQSPSSVSASVGDRLTIICRASQGINRWLAWYQQTPGNAPKLLIHSATSLQSGVPSRFSGSGSGTDFTLTINSLQPEDFATYYCQQADSFPLTFGGGTKVEIK
1.21

[ask] So what's the measured fold difference in affinity vs original for this one? C5A (XPA23) VL F94L (antibody, V domains shown) VH: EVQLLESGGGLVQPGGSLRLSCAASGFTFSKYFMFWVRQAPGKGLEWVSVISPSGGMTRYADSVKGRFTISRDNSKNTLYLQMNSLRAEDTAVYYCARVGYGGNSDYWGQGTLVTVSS VL: DIQMTQSPSSVSASVGDRLTIICRASQDINRWLAWYQQTPGNAPKLLIHSATSLQSGVPSRFSGSGSGTDFTLTINSLQPEDFATYYCQQADSLPLTFGGGTKVEIK
[reply] 0.55

[ask] Repeat with C5A (XPA23) VL L96F (antibody, V domains shown) VH: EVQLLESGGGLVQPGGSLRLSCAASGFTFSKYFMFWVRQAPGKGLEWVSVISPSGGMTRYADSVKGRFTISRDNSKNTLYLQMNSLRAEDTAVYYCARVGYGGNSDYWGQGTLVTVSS VL: DIQMTQSPSSVSASVGDRLTIICRASQDINRWLAWYQQTPGNAPKLLIHSATSLQSGVPSRFSGSGSGTDFTLTINSLQPEDFATYYCQQADSFPFTFGGGTKVEIK
[reply] 0.28
